- experimentalSetup: basic group
measuredParameter: pKa
Give your answer as a number; write no unit.

Ask: # input compound: `CCN(Cl)CC` ; wanted: its pKa
Reply: 1.02

Ask: And `[O-]c1cc2nc(c1)COCCOCCSCCOCCOC2` ?
Reply: 10.1

Ask: And `Cc1cccc(C)c1N(C)C` ?
Reply: 5.85

Ask: And `[O-]c1ccnc[nH+]1` ?
Reply: 1.77

Ask: And `Nc1ccc(-c2nc3ccccc3s2)cc1` ?
Reply: 3

Ask: And `Cc1ccnc(NS(=O)(=O)c2ccccc2)n1` ?
Reply: 0.59

Ask: And `Nc1ccc(S(=O)(=O)Nc2ccc(N)nc2)cc1` ?
Reply: 4.19

Ask: And `Cn1c(=O)n(C)c2c(N)cccc21` ?
Reply: 3.06

---

- experimentalSetup: basic group
measuredParameter: pKa

Ask: # input compound: `Nc1nnnn1-c1cccc([N+](=O)[O-])c1` ; wanted: its pKa
Reply: 0.47

Ask: And `C[NH+](C)C[C@@H]1[C@@H](N)[C@]2(C)CC[C@@H]1C2(C)C` ?
Reply: 7.5

Ask: And `CC1CCN(c2cc[nH+]cc2)CC1` ?
Reply: -0.56

Ask: And `O=[N+]([O-])c1ccc2[nH]c(-c3ccco3)nc2c1` ?
Reply: 2.64

Ask: And `Nc1cnc([S-])nc1N` ?
Reply: 10.4

Ask: And CCCCN1CCCCC1C (configuration not stated) ?
Reply: 10.7

Ask: And `C=C(C)C(=O)OCCN(C)C` ?
Reply: 8.06

Ask: And `C[NH+](C)CCNc1ccnc2cccc([N+](=O)[O-])c12` ?
Reply: 5.77

Ask: And `COc1cccc(N)c1` ?
Reply: 4.23

Ask: And `COc1cnccn1` ?
Reply: 0.75

Ask: And `CCN(C#N)CC` ?
Reply: -2

Ask: And `[S-]CCNCCc1ccccc1` ?
Reply: 10.3

Ask: And CC1=CN(C)CC1C (configuration not stated) ?
Reply: 9.6

Ask: And `NCCCCl` ?
Reply: 9.89

Ask: And `NCc1ccc(Cl)c(N)c1` ?
Reply: 9.33

Ask: And `CCN(CC)CCN=C(c1ccccc1C)c1ccccc1C` ?
Reply: 8.8

Ask: And `CC(=O)N(C)c1cccnc1` ?
Reply: 3.52

Ask: And `CSC(C)=N` ?
Reply: 6.71

Ask: And `c1ccc(-c2nnc(-c3ccccc3)o2)cc1` ?
Reply: 1.96

Ask: And `Cc1cnc2c(ccc3c(C)ccnc32)c1` ?
Reply: 5.57

Ask: And `NCCCCBr` ?
Reply: 10

Ask: And O=[PH]([O-])C([NH2+]Cc1ccccn1)c1ccccc1O (configuration not stated) ?
Reply: 3.25

Ask: And `CCOc1ccc2[nH]cnc2c1` ?
Reply: 5.57

Ask: And CCCCN(CC(C)O)CC(C)O (configuration not stated) ?
Reply: 9.3

Ask: And `CN(C)c1ncc([N+](=O)[O-])s1` ?
Reply: 0.48

Ask: And `Nc1ccc2c(c1)Cc1c(F)cccc1-2` ?
Reply: 3.54

Ask: And `CC[NH+](CC)CCN` ?
Reply: 6.76

Ask: And CCCCCCCCN(CC(C)O)CC(C)O (configuration not stated) ?
Reply: 8.3

Ask: And `COc1c(Cl)cc(Cl)c([O-])c1C(=O)NC1CCN(C)CC1` ?
Reply: 9.12

Ask: And `CC[NH2+]/C(=C/C(=O)c1cccc(S(=O)(=O)[O-])c1)n1ccnc1` ?
Reply: 4.5

Ask: And `NCc1ccc([N+](=O)[O-])cc1` ?
Reply: 8.5

Ask: And `C[NH+]1CCN(C(c2ccccc2)c2ccccc2)CC1` ?
Reply: 2.16
